Data provenance: patent US7119073B2

experimental-target: NS3 protease domain complexed to a modified form of the NS4A peptide (Pep4AK) (Hepatitis C virus genotype 1b, UniProt P26663)
Construct: NS3 protease domain (residues 1027–1206 of the HCV polyprotein)
Sequence (P26663 1027-1206, other chains not shown): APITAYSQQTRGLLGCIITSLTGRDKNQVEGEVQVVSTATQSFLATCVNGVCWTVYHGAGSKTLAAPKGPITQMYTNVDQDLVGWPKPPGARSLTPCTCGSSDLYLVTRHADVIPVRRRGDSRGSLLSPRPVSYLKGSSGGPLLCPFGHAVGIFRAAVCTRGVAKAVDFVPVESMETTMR
protocol-description: HCV NS3 protease domain/NS4A cofactor peptide assay (Assay B)
Type: biochemical
conditions: Assay B, Table 1; NS3 protease domain/Pep4AK, 4AB peptide substrate
property-name: IC50

### Prompt Value lookup for IC50; key = CC(C)COC(=O)NC(CCC(=O)O)C(=O)NC(CC(C)C)C(=O)NC(CC(F)F)C(=O)NCCc1ccc(C(=O)O)cc1Cl (stereo not shown) [Compound 180]
### Response < 1000 nM
